A collection of compounds and their measured MIC E. cloacae LMG2783T
- Test system: E. cloacae
- Format: cell-based, Enterobacter cloacae
Starred links: 1 amine or outer side, 2 acyl side, 3 side chain; linkers in the order of their positions; H or OH if unused. Positions of bridges follow the written chain, without caps; N, C: chain ends. Non-standard residues stand in square brackets, D forms with d. Residues, ends and D or L forms follow the SMILES beside them. X3 = CC(C)CCCCCCC[C@H](CC(=O)[*:1])O[*:2]; X4 = CCCCCCC=CC[C@H](CC(=O)[*:1])O[*:2]; X2 = CCCCCCC[C@H](CC(=O)[*:1])O[*:2]; Val(3-OH) = CC(C)(O)[C@H](N)C(=O)O; X1 = C/C=C(/N[*:1])C(=O)[*:2]; Dab = NCC[C@H](N)C(=O)O; Dap = NC[C@H](N)C(=O)O

compound: C/C=C1/NC(=O)[C@H](CCN)NC(=O)[C@H](CC(C)C)NC(=O)[C@H](CN)NC(=O)C[C@@H](CCCCCCC)OC(=O)[C@H](CC(=O)O)NC(=O)[C@H](C(C)(C)O)NC(=O)[C@@H](Cc2ccccc2)NC(=O)[C@H](CN)NC(=O)[C@H]([C@@H](C)O)NC1=O [U747] ([Dap]L[Dab][X1]T[Dap][dF][Val(3-OH)]D; linker N-C via X2)
relational-operator: =
MIC E. cloacae LMG2783T (µg/mL): 2
//
compound: C/C=C1/NC(=O)[C@H](CCN)NC(=O)[C@H](CC(C)C)NC(=O)[C@H](CC(N)=O)NC(=O)C[C@@H](CCCCCCCC(C)C)OC(=O)[C@H](CC(=O)O)NC(=O)[C@H](C(C)C)NC(=O)[C@@H](Cc2ccccc2)NC(=O)[C@H](CN)NC(=O)[C@H]([C@@H](C)O)NC1=O [U824] (NL[Dab][X1]T[Dap][dF]VD; linker N-C via X3)
relational-operator: >
MIC E. cloacae LMG2783T (µg/mL): 32
//
compound: C/C=C1/NC(=O)[C@H](CCN)NC(=O)[C@H](CC(C)C)NC(=O)[C@H](CN)NC(=O)C[C@@H](CC=CCCCCCC)OC(=O)[C@H](CC(=O)O)NC(=O)[C@H](C(C)(C)O)NC(=O)[C@@H](Cc2ccccc2)NC(=O)[C@H](CN)NC(=O)[C@H]([C@@H](C)O)NC1=O [U756] ([Dap]L[Dab][X1]T[Dap][dF][Val(3-OH)]D; linker N-C via X4)
relational-operator: =
MIC E. cloacae LMG2783T (µg/mL): 2
//
compound: C/C=C1/NC(=O)[C@H](CCN)NC(=O)[C@H](CC(C)C)NC(=O)[C@H](CN)NC(=O)C[C@@H](CCCCCCCC(C)C)OC(=O)[C@H](CC(=O)O)NC(=O)[C@H](C(C)(C)O)NC(=O)[C@@H](Cc2ccccc2)NC(=O)[C@H](CN)NC(=O)[C@H]([C@@H](C)O)NC1=O [U773] ([Dap]L[Dab][X1]T[Dap][dF][Val(3-OH)]D; linker N-C via X3)
relational-operator: =
MIC E. cloacae LMG2783T (µg/mL): 8
//
compound: C/C=C1/NC(=O)[C@H](CCN)NC(=O)[C@H](CC(C)C)NC(=O)[C@H](CN)NC(=O)C[C@@H](CCCCCCCC(C)C)OC(=O)[C@H](CC(=O)O)NC(=O)[C@H](C(C)C)NC(=O)[C@@H](Cc2ccccc2)NC(=O)[C@H](CN)NC(=O)[C@H]([C@@H](C)O)NC1=O [U793] ([Dap]L[Dab][X1]T[Dap][dF]VD; linker N-C via X3)
relational-operator: =
MIC E. cloacae LMG2783T (µg/mL): 16
